Target: T1, Dmc1 (Saccharomyces cerevisiae, UniProt P25453 1-334)
T1 sequence: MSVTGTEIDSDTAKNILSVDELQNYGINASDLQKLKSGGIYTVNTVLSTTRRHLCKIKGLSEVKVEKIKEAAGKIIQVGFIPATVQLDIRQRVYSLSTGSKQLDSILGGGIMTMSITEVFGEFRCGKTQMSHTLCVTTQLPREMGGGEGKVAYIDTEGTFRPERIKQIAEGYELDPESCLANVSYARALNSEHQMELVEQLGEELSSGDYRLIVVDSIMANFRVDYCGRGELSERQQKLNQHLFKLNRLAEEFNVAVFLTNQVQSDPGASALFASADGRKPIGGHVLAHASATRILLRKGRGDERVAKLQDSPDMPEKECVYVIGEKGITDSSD
Assay: smFRET
measured_property: pKd
When answering, recall that pKd equals minus log10 of the concentration in mol/L, and write that number alone.

QUERY: // returns reported pKd for input dT9 (mixed) DNA 1: TGGCGAGCAGCGAGGCTTTTTTTTT DNA 2: GCCTCGCTGCCGTCGCCA
RESULT: 5.85

Reference source for all entries: paper PMC11514449
